Cited source: the supplement of paper PMC10724198

Test system: Saccharomyces cerevisiae;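 note: PSI is a weighted mean of sequencing reads over stability bins, variants kept only with over 10 reads, mCherry proximal and sfGFP distal, peptide attached via GGGS linker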
Assay method text: protein stability index of tFT-peptide fusion (C-terminal peptide) (PSI (0-1 scale)); higher = more stable (slower turnover)
Condition set: genetic background: doa10 deletion; temperature: 30 C
Consider the following partition of reported protein stability index into named classes: lower bin (below 0.2), middle bin (0.2 to below 0.3), upper bin (0.3 or more)

Prompt: Could you place VGVSCVVCVCGV in its proper category? Many thanks.
Completion: middle bin

Prompt: Class? Entry: SFYVCVPVLWLV
Completion: lower bin

Prompt: For this sequence, which bin applies? SFFSQAIPILAA
Completion: lower bin

Prompt: Would you mind sorting VLRACCDWGFLV into the appropriate category?
Completion: lower bin

Prompt: Bin? SPCLPRGVLFLA
Completion: middle bin

Prompt: Class label required: DKVTLLRRCKQY
Completion: lower bin

Prompt: Field: class (protein stability index) — entry: VVDIFLFFLFVC
Completion: lower bin

Prompt: Assign a category based on measured protein stability index for YVRHDKLILSFC and give only the class name.
Completion: upper bin

Prompt: Which bin, given its protein stability index, does LSPPLRHRLTPP occupy?
Completion: upper bin

Prompt: Which category does the recorded protein stability index put SVFSFCLCVGVV in?
Completion: middle bin

Prompt: Could you tell me which band PVALYPVQAYLT belongs to?
Completion: lower bin

Prompt: Please classify: VFSLFLVLNYPF
Completion: upper bin

Prompt: Class label required: SVLCLFSRLRSV
Completion: lower bin

Prompt: Band assignment needed for LFLIYCFAFSIG please.
Completion: lower bin

Prompt: Which category fits this record: FCIYLCLSTSIT
Completion: lower bin

Prompt: Into which bin does this sequence go? CLCYFLFYFLFV
Completion: upper bin

Prompt: Form: Item = CEERVKSRLKQN ; Class = ?
Completion: lower bin

Prompt: Which class is correct for the following sequence? RLPSSNVRYWVS
Completion: lower bin

Prompt: Categorize the following entry: VVFVRLGWMRAC
Completion: lower bin

Prompt: Hi, small favor: classify VCVWVDILAFCS by its protein stability index when you get a moment.
Completion: lower bin

Prompt: Kindly identify the class of SSLAKFQLISTY .
Completion: middle bin

Prompt: Hi there! Could you help me figure out the category for HPRPRPPPLPPP please?
Completion: upper bin

Prompt: Which band does FKKIKGKIEKKN fall in?
Completion: upper bin

Prompt: Where would GFSVFSHSVWVR land among the classes by reported protein stability index?
Completion: upper bin

Prompt: Please classify: GSLFANYNLKLF
Completion: lower bin

Prompt: The entry to classify is CLHFLTWVRICS ; which class holds it?
Completion: lower bin

Prompt: Sort GIVSGEGAVGVG into one of the categories.
Completion: upper bin

Prompt: Hey, which category is PLLPTPLTAPPP in, do you know?
Completion: upper bin

Prompt: Which class does FVSHRRFSLFLY fall in?
Completion: lower bin

Prompt: Band for YRHYGVARKKLA ?
Completion: lower bin

Prompt: Bin? YLFLPGGEVSVH
Completion: upper bin

Prompt: Bin this entry: CFCSFQFVRLWV
Completion: upper bin

Prompt: Entry GRHRRIRYVKTS belongs to which category?
Completion: lower bin

Prompt: Which category does the recorded protein stability index put KKIKKYTRKLKI in?
Completion: upper bin

Prompt: Form: Item = VCLVAGVFFCLL ; Class = ?
Completion: upper bin

Prompt: Each sequence maps to one class by protein stability index. Which class for ILRAGITYVYAV ?
Completion: middle bin

Prompt: Kindly identify the class of RYLHFASLLFAS .
Completion: lower bin

Prompt: Sort into band: LCYFFFISLFLG
Completion: middle bin

Prompt: Returns: class label. Input: CGQIAFLGIAVK
Completion: middle bin

Prompt: Bin? GGICVVAYWRLA
Completion: lower bin

Prompt: State the class of the sequence shown: FFASAAVHLVTC
Completion: upper bin

Prompt: // return the class label for AYVAPRRALMCS
Completion: middle bin

Prompt: Given GGRSLYAILCAV , name the class its protein stability index places it in.
Completion: lower bin

Prompt: // return the class label for VFFVLAVVGADA
Completion: middle bin

Prompt: Hi, small favor: classify FRSMFLFLNLLF by its protein stability index when you get a moment.
Completion: upper bin

Prompt: Which bin should I file CRQDWMCFVYLS under?
Completion: lower bin

Prompt: Assign a category based on measured protein stability index for GPGTWLFCFVRF and give only the class name.
Completion: upper bin

Prompt: Each sequence maps to one class by protein stability index. Which class for LLTGRFRILLVV ?
Completion: lower bin

Prompt: For AFFGIYLICFIV , which protein stability index bin applies?
Completion: lower bin

Prompt: Assign a bin to FERVEYEVLGIG
Completion: upper bin

Prompt: Which class is correct for the following sequence? RTMLSNRIKSFI
Completion: middle bin

Prompt: Hi there! Could you help me figure out the category for VIFFEFFLSFGE please?
Completion: middle bin

Prompt: Which protein stability index band matches MMYTLSMLLRLR ?
Completion: upper bin

Prompt: Sort LLVRYRRALVLL into one of the categories.
Completion: lower bin

Prompt: Would you mind sorting VSLHVFVFLLAS into the appropriate category?
Completion: lower bin

Prompt: Exam item: assign LSCCIVLLIIFV to the correct category.
Completion: middle bin

Prompt: Bin? VWWWGAVGWLMV
Completion: upper bin

Prompt: Which of the defined bands does the recorded protein stability index of MGVTVRVEGIRA sit within?
Completion: upper bin
